# experimental.system: beta-thrombin (UniProt P00734;P00734;P00734 328-363;364-425;437-622)
# assay.overview: filter binding
property.measured: pKd
In simple prose, pKd is minus the logarithm base ten of a concentration in moles per litre.

Asked: Value lookup for pKd; key = RNAR9D-14T (XNA, 2'-fluoro on all C and U; purines 2'-OH) RNA: GGCGGUCGAUCACACAGUUCAAACGUAAUAAGCCAAUGUACGAGGCAGACGACUCGCC
Given back: 7.70
